Exercise: for every item that follows, state its recorded Inhibition rate (%).
test system: lymphocytes (fresh spleen cells); assay: Lymphocyte proliferation assay (ConA-induced spleen cells); type: cell-based, rat; settings: lymphocyte proliferation induced with 5 μg/mL ConA, 48 hours; test concentration not given
Respond with a number, then the unit of measure.

# return recorded Inhibition rate (%) for input O=C(Nc1ccccc1)c1csc(-c2cnn3cccnc23)n1
40.69%

Note down Inhibition rate (%) recorded for O=C(Nc1cccnc1)c1csc(-c2cnn3cccnc23)n1
59.61%

Identify Inhibition rate (%) associated with the compound O=C(NC1CCC(C(F)(F)F)CC1)c1csc(-c2cnn3cccnc23)n1 (stereo not drawn)
42.49%

Report Inhibition rate (%), nothing else, for this compound: CCC(CCC(C)C1CCC2C3CC=C4CC(OC(=O)c5csc(C(=O)c6c[nH]c7ccccc67)n5)CCC4(C)C3CCC12C)C(C)C (stereo not drawn)
48.2%

Name the recorded Inhibition rate (%) of the compound listed here: O=C(c1csc(-c2cnn3cccnc23)n1)N1CCC[C@H]1c1cccnc1
81.38%

Specify reported Inhibition rate (%) for the compound shown: O=C(NCc1ccccc1)c1csc(C(=O)c2c[nH]c3ccccc23)n1
46.55%

// Input: O=C(NCCC(F)(F)F)c1csc(-c2cnn3cccnc23)n1 . Output its Inhibition rate (%) only.
43.09%

# return recorded Inhibition rate (%) for entry O=C(NCCC(F)(F)F)c1csc(C(=O)c2c[nH]c3ccccc23)n1
43.54%

Identify measured Inhibition rate (%) corresponding to O=C(OCc1cn(CCCCCCO)nn1)c1csc(C(=O)c2c[nH]c3ccccc23)n1
21.17%
